src = ChEMBL document CHEMBL1147444

- measured.on: C-C chemokine receptor type 5 (Homo sapiens, UniProt P51681)
- Sequence (P51681 whole entry): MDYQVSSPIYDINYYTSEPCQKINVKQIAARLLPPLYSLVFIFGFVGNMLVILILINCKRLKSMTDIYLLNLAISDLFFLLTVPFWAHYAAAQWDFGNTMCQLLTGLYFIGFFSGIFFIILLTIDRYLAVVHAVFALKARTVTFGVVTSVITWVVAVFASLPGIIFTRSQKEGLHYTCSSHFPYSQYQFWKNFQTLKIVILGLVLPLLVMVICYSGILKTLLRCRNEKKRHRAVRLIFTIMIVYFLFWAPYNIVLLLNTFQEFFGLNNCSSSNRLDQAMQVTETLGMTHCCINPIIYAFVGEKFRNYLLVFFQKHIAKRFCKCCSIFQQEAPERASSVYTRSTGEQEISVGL
- assay.name: Inhibitory concentration to displace [125I]-MIP-1 alpha from human […] chemokine receptor 5 expressed in CHO cell
- Assay type: cell-based
quantity.measured: pIC50
Schema: pIC50 number; meaning minus log10 of the concentration expressed in molar units.

Please look at `CCn1nc(Cc2ccccc2)cc1C1CCN(C[C@H]2CN([C@@H](C(=O)O)C3CCCCC3)C[C@@H]2c2ccccc2)CC1` and tell me its recorded pIC50 on C-C chemokine receptor type 5 (Homo sapiens, UniProt P51681).
8.92
